Cited source: patent US10479780B2

subject.of.test: human Lck enzyme (Homo sapiens, UniProt P06239)
Construct: purchased Carna Biosciences, Inc. 08-170
Sequence (P06239 whole entry): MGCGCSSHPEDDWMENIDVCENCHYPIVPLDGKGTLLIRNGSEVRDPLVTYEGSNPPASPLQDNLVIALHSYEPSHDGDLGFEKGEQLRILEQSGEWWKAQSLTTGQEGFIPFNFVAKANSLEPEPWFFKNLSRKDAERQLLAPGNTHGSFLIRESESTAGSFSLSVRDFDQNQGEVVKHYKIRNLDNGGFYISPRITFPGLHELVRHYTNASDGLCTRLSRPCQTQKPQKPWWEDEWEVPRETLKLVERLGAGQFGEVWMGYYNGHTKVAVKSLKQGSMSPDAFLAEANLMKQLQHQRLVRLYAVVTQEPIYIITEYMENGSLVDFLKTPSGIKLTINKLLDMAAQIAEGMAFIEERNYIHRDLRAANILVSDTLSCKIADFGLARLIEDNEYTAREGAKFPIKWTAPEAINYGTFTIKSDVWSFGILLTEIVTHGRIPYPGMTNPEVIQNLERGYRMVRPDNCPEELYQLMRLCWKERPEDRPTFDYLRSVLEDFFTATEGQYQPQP
procedure.summary: Lck enzyme inhibitory activity (time-resolved fluorometry, biotinylated peptide phosphorylation)
Type: biochemical
details: read-out: LCK_IC50
measurement.type: pIC50
For clarity, pIC50 is expressed as the negative log10 of concentration in mol/L.

Cc1cc(Oc2ccccc2F)cc(F)c1-n1ncc(C(=O)c2cc3cc(OC(F)F)c(NS(C)(=O)=O)cc3[nH]2)c1N [Example 5-1-076] = 7.80
Cc1cc(-n2ncc(C(=O)c3cc4cc(OC(F)F)c(N5CCC(N6CCOCC6)CC5)cc4[nH]3)c2N)ccc1Oc1ccccc1F [Example 5-1-181] = 7.39
Cc1cc(Oc2c(F)cccc2F)ncc1-n1ncc(C(=O)c2cc3cc(OC4CCN(C(C)C)CC4)c(F)cc3[nH]2)c1N [Example 5-1-204] = 8.17

q: Tell me the measured pIC50 of Cc1cc2cc(C(=O)c3cnn(-c4c(C)cc(Oc5ccccc5F)cc4F)c3N)[nH]c2cc1NS(=O)(=O)CC(=O)NC(C)C [Example 5-1-089] , please.
a: 8.05

q: Tell me the measured pIC50 of Cc1cc(-n2ncc(C(=O)c3cc4cc(OCC(F)F)c(N5CCN(S(C)(=O)=O)CC5)cc4[nH]3)c2N)ccc1Oc1ccccc1F [Example 5-1-171] , please.
a: 7.31

q: Tell me the measured pIC50 of Cc1cc2cc(C(=O)c3cnn(-c4cnc(Oc5c(F)cccc5F)cc4C)c3N)[nH]c2cc1N1C(=O)NC2(CCCCC2)C1=O [Example 5-1-316] , please.
a: 7.54

q: Tell me the measured pIC50 of COc1ccccc1S(=O)(=O)Nc1cc2[nH]c(C(=O)c3cnn(-c4cnc(Oc5c(F)cccc5F)cc4C)c3N)cc2cc1OCC(F)F [Example 5-1-329] , please.
a: 6.82

q: Tell me the measured pIC50 of Cc1cc(Oc2c(F)cccc2F)ncc1-n1ncc(C(=O)c2cc3cc(F)c(N4CC(C)(C)NS4(=O)=O)cc3[nH]2)c1N [Example 5-1-398] , please.
a: 7.70

q: Tell me the measured pIC50 of Cc1cc(Oc2c(F)cccc2F)ncc1-n1ncc(C(=O)c2cc3cc(OCC(F)F)c(NS(=O)(=O)C4CCCC4)cc3[nH]2)c1N [Example 5-1-318] , please.
a: 6.92

q: Tell me the measured pIC50 of Cc1cc(Oc2c(F)cccc2F)ncc1-n1ncc(C(=O)c2cc3cc(F)c(N4C(=O)NC5(CCC5)C4=O)cc3[nH]2)c1N [Example 5-1-312] , please.
a: 8.00

q: Tell me the measured pIC50 of Cc1cc(Oc2ccccc2F)nc(C)c1-n1ncc(C(=O)c2cc3cc(F)c(NS(C)(=O)=O)cc3[nH]2)c1N [Example 5-1-060] , please.
a: 7.38

q: Tell me the measured pIC50 of Cc1cc2cc(C(=O)c3cnn(-c4cnc(Oc5c(F)cccc5F)cc4C)c3N)[nH]c2cc1N1C(=O)NC2(CCN(C3COC3)CC2)C1=O [Example 5-1-360] , please.
a: 8.20

q: Tell me the measured pIC50 of Nc1c(C(=O)c2cc3cc(F)c(NS(=O)(=O)C4CC4)cc3[nH]2)cnn1-c1c(F)cc(Oc2ccccc2F)cc1F [Example 5-1-019] , please.
a: 7.27
